# Tested on: Caco-2 cell
# procedure.summary: Caco-2 monolayer cell transmission rate (in vitro intestinal absorption model)
# Type: in vitro ADME, human
# protocol.conditions: ratio of Caco-2 transmission rate to GBP.HCl, 4 h
Counter-ions that a name gives are not always drawn.
Output rule met for gbp-prodrug/gbp Transmission Fold not less than 8 Fold; output rule not met otherwise.

Query: Could you please find out whether CCOC(=O)CC1(CNC(=O)C(N)c2cc3ccccc3[nH]2)CCCCC1 (centres unmarked) has gbp-prodrug/gbp Transmission Fold that meets 8 Fold or exceeds it?
Response: rule met

Query: Check this compound for gbp-prodrug/gbp Transmission Fold at or above 8 Fold: CCOC(=O)CC1(CNC(=O)C(Cc2ccccc2)NC(=O)CC2(CN)CCCCC2)CCCCC1 (centres unmarked)
Response: rule met

Query: Please check the record CC(C)(C)OC(=O)NC(C(=O)NCC1(CC(=O)O)CCCCC1)c1ccccc1 (centres unmarked) and state if its gbp-prodrug/gbp Transmission Fold is at or above 8 Fold.
Response: rule not met

Query: Please tell me: is the compound NCC1(CC(=O)O)CCCCC1 [Control 1, Gabapentin HCl, reference compound] at or over 8 Fold in terms of gbp-prodrug/gbp Transmission Fold?
Response: rule not met

Query: Hello, I need to know if CCOC(=O)CC1(CNC(=O)C2CSCN2C(=O)OC(C)(C)C)CCCCC1 (centres unmarked) has measured gbp-prodrug/gbp Transmission Fold not below 8 Fold. Thanks!
Response: rule not met

Query: Confirm if gbp-prodrug/gbp Transmission Fold reported for the compound CC(C)C[C@@H](NC(=O)OC(C)(C)C)C(=O)NCC1(CC(=O)O)CCCCC1 is 8 Fold or above.
Response: rule met

Query: Record CC(C)(C)OC(=O)NC(Cc1ccccc1)C(=O)NCC1(CC(=O)O)CCCCC1 (centres unmarked) [Embodiment 15] ; criterion: gbp-prodrug/gbp Transmission Fold no lower than 8 Fold. Met?
Response: rule not met

###

# Tested on: Caco-2 cell
# procedure.summary: Caco-2 monolayer cell transmission rate (in vitro intestinal absorption model)
# Type: in vitro ADME, human
# protocol.conditions: ratio of Caco-2 transmission rate to GBP.HCl, 4 h
Hi there, I'd appreciate the recorded gbp-prodrug/gbp Transmission Fold for every entry that follows.
Note: unit Fold is implicit; provide only the numeric part.

The reported gbp-prodrug/gbp Transmission Fold of the compound CCOC(=O)CC1(CNC(=O)CCNC(=O)c2cccnc2)CCCCC1 was 8.2

Given item CSCCC(NC(=O)OC(C)(C)C)C(=O)NCC1(CC(=O)O)CCCCC1 (centres unmarked) , the value recorded as its gbp-prodrug/gbp Transmission Fold is 23.6

GET /value?item= CC(C)(C)OC(=O)NC(Cc1ccccc1)C(=O)NCC1(CC(=O)O)CCCCC1 (centres unmarked) [Embodiment 4] &field=gbp-prodrug/gbp Transmission Fold returns 9.1

Note to self: gbp-prodrug/gbp Transmission Fold recorded for CC(C)(C)OC(=O)NCC1(CC(=O)NCC2(CC(=O)O)CCCCC2)CCCCC1 was 24.5

The measured gbp-prodrug/gbp Transmission Fold associated with CCOC(=O)C(Cc1ccccc1)NC(=O)C(C)NC(=O)CC1(CN)CCCCC1 (centres unmarked) reads 2.6

Record summary for CCOC(=O)CC1(CNC(=O)C(CC(C)C)NC(=O)CC2(CN)CCCCC2)CCCCC1 (centres unmarked) : reported gbp-prodrug/gbp Transmission Fold = 11.1

# gbp-prodrug/gbp Transmission Fold of CCOC(=O)CC1(CNC(=O)C(NC(=O)OC(C)(C)C)c2ccc(O)cc2)CCCCC1 (centres unmarked) = 4.6

// recorded gbp-prodrug/gbp Transmission Fold for NCC1(CC(=O)N2CCCC2C(=O)NCC2(CC(=O)O)CCCCC2)CCCCC1 (centres unmarked) : 9.8
